Cited source for all entries: paper PMC12670396

# Test system: hTERT-HPNE
# experiment: MTT cytotoxicity in noncancerous cells, 72 h
# Assay type: cell-based, human
Threshold 3 µM. IC50 below it: class 1. IC50 at it or above: class 0.

Check out these entries, answers already filled in.
CC(Oc1cc(-c2cnn(C3CCN(C(=O)[O][Pt]([OH])([Cl])[Cl])CC3)c2)cnc1N)c1c(Cl)ccc(F)c1Cl.N.N (stereo not shown) [compound 2, ctc-[Pt(NH3)2(crizotinib)(OH)Cl2]] : class 0
Cc1cc(Nc2ncc(Cl)c(Nc3ccccc3S(=O)(=O)C(C)C)n2)c(OC(C)C)cc1C1CCN(C(=O)[O][Pt]2([O]C(=O)CCCc3ccccc3)[O]C(=O)C(=O)[O]2)CC1.N[C@@H]1CCCC[C@H]1N [compound 8, ctc-[Pt(DACH)(ceritinib)(PhB)(Ox)]] : class 0
N.N.[Cl][Pt][Cl] [cisPt, cisplatin, reference compound] : class 0
Cc1cc(Nc2ncc(Cl)c(Nc3ccccc3S(=O)(=O)C(C)C)n2)c(OC(C)C)cc1C1CCN(C(=O)[O][Pt]([OH])([Cl])[Cl])CC1.N.N [compound 6, ctc-[Pt(NH3)2(ceritinib)(OH)Cl2]] : class 1
CC(Oc1cc(-c2cnn(C3CCN(C(=O)[O][Pt]([Cl])([Cl])[O]C(=O)CCCc4ccccc4)CC3)c2)cnc1N)c1c(Cl)ccc(F)c1Cl.N.N (stereo not shown) [compound 3, ctc-[Pt(NH3)2(crizotinib)(PhB)Cl2]] : class 1
Cc1cc(Nc2ncc(Cl)c(Nc3ccccc3S(=O)(=O)C(C)C)n2)c(OC(C)C)cc1C1CCN(C(=O)[O][Pt]([Cl])([Cl])[O]C(=O)CCCc2ccccc2)CC1.N.N [compound 7, ctc-[Pt(NH3)2(ceritinib)(PhB)Cl2]] : class 1

Lab note: next compound to report on.
Data request: Lab note: IC50 threshold 3 µM. Does this compound come in strictly under it? C[C@@H](Oc1cc(-c2cnn(C3CCN(C(=O)[O][Pt]4([O]C(=O)CCCc5ccccc5)[O]C(=O)C(=O)[O]4)CC3)c2)cnc1N)c1c(Cl)ccc(F)c1Cl.N[C@@H]1CCCC[C@H]1N [compound 4, ctc-[Pt(DACH)(crizotinib)(PhB)(Ox)]]
Data returned: class 0

* * *

# Test system: MCF10A
# experiment: MTT cytotoxicity in noncancerous cells, 72 h
# Type: cell-based, human
# measurement_setup: Homo sapiens, MCF-10A
property: pIC50
In simple prose, pIC50 is minus the logarithm base ten of a concentration in moles per litre.

Cc1cc(Nc2ncc(Cl)c(Nc3ccccc3S(=O)(=O)C(C)C)n2)c(OC(C)C)cc1C1CCNCC1 : 5.47

Recorded pIC50 (compound "C[C@@H](Oc1cc(-c2cnn(C3CCNCC3)c2)cnc1N)c1c(Cl)ccc(F)c1Cl" ): 5.19

* * *

# System: normal (noncancerous) cells MRC-5, IMR-90, hTERT-HPNE, MCF10A
# experiment: MTT, noncancerous cell lines (average, selectivity index)
# Type: cell-based, human
# measurement_setup: average over MRC-5, IMR-90, hTERT-HPNE, MCF10A; read-out: av norm (average IC50 in noncancerous cells)
Label key: 1 means IC50 under 3000 nM; 0 means IC50 of 3000 nM or more.

Cc1cc(Nc2ncc(Cl)c(Nc3ccccc3S(=O)(=O)C(C)C)n2)c(OC(C)C)cc1C1CCN(C(=O)[O][Pt]([Cl])([Cl])[O]C(=O)CCCc2ccccc2)CC1.N.N [compound 7, ctc-[Pt(NH3)2(ceritinib)(PhB)Cl2]] : 1
CC(Oc1cc(-c2cnn(C3CCN(C(=O)[O][Pt]([OH])([Cl])[Cl])CC3)c2)cnc1N)c1c(Cl)ccc(F)c1Cl.N.N (stereo not shown) [compound 2, ctc-[Pt(NH3)2(crizotinib)(OH)Cl2]] : 0
N.N.[Cl][Pt][Cl] [cisPt, cisplatin, reference compound] : 0

Data request: Decide: IC50 of C[C@@H](Oc1cc(-c2cnn(C3CCN(C(=O)[O][Pt]4([O]C(=O)CCCc5ccccc5)[O]C(=O)C(=O)[O]4)CC3)c2)cnc1N)c1c(Cl)ccc(F)c1Cl.N[C@@H]1CCCC[C@H]1N [compound 4, ctc-[Pt(DACH)(crizotinib)(PhB)(Ox)]] strictly below 3000 nM?
Data returned: 1

Data request: Decide: IC50 of CC(Oc1cc(-c2cnn(C3CCN(C(=O)[O][Pt]([Cl])([Cl])[O]C(=O)CCCc4ccccc4)CC3)c2)cnc1N)c1c(Cl)ccc(F)c1Cl.N.N (stereo not shown) [compound 3, ctc-[Pt(NH3)2(crizotinib)(PhB)Cl2]] strictly below 3000 nM?
Data returned: 1

Data request: Quick check: IC50 of Cc1cc(Nc2ncc(Cl)c(Nc3ccccc3S(=O)(=O)C(C)C)n2)c(OC(C)C)cc1C1CCN(C(=O)[O][Pt]2([O]C(=O)CCCc3ccccc3)[O]C(=O)C(=O)[O]2)CC1.N[C@@H]1CCCC[C@H]1N [compound 8, ctc-[Pt(DACH)(ceritinib)(PhB)(Ox)]] under 3000 nM?
Data returned: 0
